Measured values drawn from patent US20230263822A1 for this set.

Kindly state neutrophils for each of the entries shown.
# ASSAY: Hematology assays in cynomolgus monkeys (Example 45)
# Type: in vivo
# COND: day 22
# Protocol: Groups, each consisting of two male and three female monkeys, were injected subcutaneously with ISIS 416838, ISIS 416850, ISIS 416858, ISIS 416864, or ISIS 417002 in escalating doses. […] Body weights were measured weekly. […]
Give bare numbers, in %.

{"columns": ["SUBSTANCE", "UNIT_SYMBOL", "neutrophils"],
 "data": [
  ["ISIS 416858: MOE gapmer, nucleobases 1275 to 1318 of SEQ ID NO: 1 (Table 8) (antisense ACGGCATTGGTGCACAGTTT; MOE gapmer, wing and gap sizes not given here)", "%", 47],
  ["ISIS 416850: MOE gapmer, nucleobases 1275 to 1318 of SEQ ID NO: 1 (Table 8) (antisense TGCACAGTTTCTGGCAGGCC; MOE gapmer, wing and gap sizes not given here)", "%", 57],
  ["ISIS 417002: MOE gapmer, nucleobases 1275 to 1318 of SEQ ID NO: 1 (Table 8) (antisense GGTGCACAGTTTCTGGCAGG; MOE gapmer, wing and gap sizes not given here)", "%", 55],
  ["ISIS 416838: MOE gapmer, nucleobases 1018 to 1042 of SEQ ID NO: 1 (Table 6) (antisense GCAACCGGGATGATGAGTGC; MOE gapmer, wing and gap sizes not given here)", "%", 37]
]}

# next substance below
Qu. Look up neutrophils: ISIS 416864: MOE gapmer, nucleobases 1275 to 1318 of SEQ ID NO: 1 (Table 8) (antisense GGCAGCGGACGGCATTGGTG; MOE gapmer, wing and gap sizes not given here)
Ans. 59

###

# ASSAY: Tolerability in Sprague-Dawley rats: body weight and organ weight (Example 44)
# Format: in vivo
# COND: 50 mg/kg s.c. twice per week for 6 weeks, end of study
Strand notation (5' to 3'): a small letter for the sugar, then the base; units joined by * are phosphorothioate-linked, units joined directly phosphodiester-linked; [ ] holds rarer units or linkages, { } end groups; capitals alone tell only the bases. e = 2'-O-(2-methoxyethyl) (MOE); [5mC] = 5-methylcytosine; d = 2'-deoxy (DNA)
PROPERTY_MEASURED: Change in Liver weight

{"columns": ["SUBSTANCE", "RESULT"],
 "data": [
  ["ISIS 449707: 3-8-3, 4-8-4, 2-10-2, 3-10-3 or 4-10-4 MOE microwalk gapmer (Table 46) (antisense e[5mC]*eA*e[5mC]*eA*dG*dT*dT*dT*d[5mC]*dT*dG*dG*e[5mC]*eA*eG*eG)", "+41%"]
]}

# next substance below
Qu. Look up Change in Liver weight: ISIS 449711: 3-8-3, 4-8-4, 2-10-2, 3-10-3 or 4-10-4 MOE microwalk gapmer (Table 46) (antisense eA*e[5mC]*dA*dG*dT*dT*dT*d[5mC]*dT*dG*dG*d[5mC]*eA*eG)
Ans. +52%

###

# ASSAY: Liver function, ALT, AST, bilirubin in cynomolgus monkeys (Example 46)
# Format: in vivo
# COND: Day 31; plasma
Strand notation (5' to 3'): a small letter for the sugar, then the base; units joined by * are phosphorothioate-linked, units joined directly phosphodiester-linked; [ ] holds rarer units or linkages, { } end groups; capitals alone tell only the bases. e = 2'-O-(2-methoxyethyl) (MOE); [5mC] = 5-methylcytosine; d = 2'-deoxy (DNA)
PROPERTY_MEASURED: Bilirubin (mg/dL)
Answers are plain numbers, in mg/dL.

Quick batch: Bilirubin for everything below.
1. ISIS 449708: 3-8-3, 4-8-4, 2-10-2, 3-10-3 or 4-10-4 MOE microwalk gapmer (Table 46) (antisense eA*e[5mC]*eA*dG*dT*dT*dT*d[5mC]*dT*dG*dG*e[5mC]*eA*eG)
2. ISIS 449710: 3-8-3, 4-8-4, 2-10-2, 3-10-3 or 4-10-4 MOE microwalk gapmer (Table 46) (antisense e[5mC]*eA*e[5mC]*dA*dG*dT*dT*dT*d[5mC]*dT*dG*dG*d[5mC]*eA*eG*eG)
3. ISIS 445522: 5-8-5 or 6-8-6 MOE microwalk gapmer (Table 44) (antisense eG*e[5mC]*eA*e[5mC]*eA*dG*dT*dT*dT*d[5mC]*dT*dG*dG*e[5mC]*eA*eG*eG*e[5mC])
4. ISIS 445531: 5-8-5 or 6-8-6 MOE microwalk gapmer (Table 44) (antisense eG*eG*e[5mC]*eA*eT*dT*dG*dG*dT*dG*d[5mC]*dA*d[5mC]*eA*eG*eT*eT*eT)

Ans.
0.14
0.15
0.14
0.13

Quick batch: Bilirubin for everything below.
1. ISIS 449707: 3-8-3, 4-8-4, 2-10-2, 3-10-3 or 4-10-4 MOE microwalk gapmer (Table 46) (antisense e[5mC]*eA*e[5mC]*eA*dG*dT*dT*dT*d[5mC]*dT*dG*dG*e[5mC]*eA*eG*eG)
2. ISIS 449709: 3-8-3, 4-8-4, 2-10-2, 3-10-3 or 4-10-4 MOE microwalk gapmer (Table 46) (antisense eG*e[5mC]*eA*e[5mC]*dA*dG*dT*dT*dT*d[5mC]*dT*dG*dG*d[5mC]*eA*eG*eG*e[5mC])
3. ISIS 416850: MOE gapmer, nucleobases 1275 to 1318 of SEQ ID NO: 1 (Table 8) (antisense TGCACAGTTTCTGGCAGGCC; MOE gapmer, wing and gap sizes not given here)
4. ISIS 416858: MOE gapmer, nucleobases 1275 to 1318 of SEQ ID NO: 1 (Table 8) (antisense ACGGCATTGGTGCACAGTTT; MOE gapmer, wing and gap sizes not given here)
5. ISIS 449711: 3-8-3, 4-8-4, 2-10-2, 3-10-3 or 4-10-4 MOE microwalk gapmer (Table 46) (antisense eA*e[5mC]*dA*dG*dT*dT*dT*d[5mC]*dT*dG*dG*d[5mC]*eA*eG)

Ans.
[0.13, 0.15, 0.26, 0.16, 0.13]

###

# ASSAY: Tolerability in Sprague-Dawley rats: liver function (Example 44)
# Type: in vivo
# Set-up: unit not given here
# COND: 50 mg/kg s.c. twice per week for 6 weeks, plasma
Strand notation (5' to 3'): a small letter for the sugar, then the base; units joined by * are phosphorothioate-linked, units joined directly phosphodiester-linked; [ ] holds rarer units or linkages, { } end groups; capitals alone tell only the bases. e = 2'-O-(2-methoxyethyl) (MOE); [5mC] = 5-methylcytosine; d = 2'-deoxy (DNA)
PROPERTY_MEASURED: Albumin
Give bare numbers.

{"columns": ["SUBSTANCE", "Albumin"],
 "data": [
  ["ISIS 449708: 3-8-3, 4-8-4, 2-10-2, 3-10-3 or 4-10-4 MOE microwalk gapmer (Table 46) (antisense eA*e[5mC]*eA*dG*dT*dT*dT*d[5mC]*dT*dG*dG*e[5mC]*eA*eG)", 3.2]
]}

Quick batch: Albumin for everything below.
1. ISIS 449707: 3-8-3, 4-8-4, 2-10-2, 3-10-3 or 4-10-4 MOE microwalk gapmer (Table 46) (antisense e[5mC]*eA*e[5mC]*eA*dG*dT*dT*dT*d[5mC]*dT*dG*dG*e[5mC]*eA*eG*eG)
2. ISIS 449711: 3-8-3, 4-8-4, 2-10-2, 3-10-3 or 4-10-4 MOE microwalk gapmer (Table 46) (antisense eA*e[5mC]*dA*dG*dT*dT*dT*d[5mC]*dT*dG*dG*d[5mC]*eA*eG)
3. ISIS 449709: 3-8-3, 4-8-4, 2-10-2, 3-10-3 or 4-10-4 MOE microwalk gapmer (Table 46) (antisense eG*e[5mC]*eA*e[5mC]*dA*dG*dT*dT*dT*d[5mC]*dT*dG*dG*d[5mC]*eA*eG*eG*e[5mC])
4. ISIS 449710: 3-8-3, 4-8-4, 2-10-2, 3-10-3 or 4-10-4 MOE microwalk gapmer (Table 46) (antisense e[5mC]*eA*e[5mC]*dA*dG*dT*dT*dT*d[5mC]*dT*dG*dG*d[5mC]*eA*eG*eG)

Ans.
1. 3.1
2. 2.9
3. 3.1
4. 2.9

###

# System: human Factor 11 mRNA
# ASSAY: Dose-dependent inhibition of human Factor 11 in HepG2 cells, lipofectin 9.375-75 nM (Example 4)
# Format: cell-based
# COND: 9.375 nM, relative to untreated control cells
Strand notation (5' to 3'): a small letter for the sugar, then the base; units joined by * are phosphorothioate-linked, units joined directly phosphodiester-linked; [ ] holds rarer units or linkages, { } end groups; capitals alone tell only the bases. e = 2'-O-(2-methoxyethyl) (MOE); [5mC] = 5-methylcytosine; d = 2'-deoxy (DNA)
Labels assigned by percent inhibition of Factor 11 at 9.375 nM range: low group = under 20%, middle group = from 20% up to 30%, high group = 30% and over

// known answers, use as guide
{"columns": ["SUBSTANCE", "SUBJECT_OF_TEST", "ASSIGNED_LABEL"],
 "data": [
  ["412203 (antisense eA*eA*eT*eG*eT*d[5mC]*dT*dT*dT*dG*dT*dT*dG*d[5mC]*dA*eA*eG*e[5mC]*eG*e[5mC]) [compound 412203]", "human Factor 11 mRNA", "high group"],
  ["416972 (antisense eT*eA*dT*dG*d[5mC]*d[5mC]*d[5mC]*dT*dT*d[5mC]*dA*dT*dG*dT*d[5mC]*eT*eA*eG*eG*eT) [compound 416972]", "human Factor 11 mRNA", "high group"],
  ["416826 (antisense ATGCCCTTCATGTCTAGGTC; 5-10-5 gapmer, further chemistry not given here) [compound 416826]", "human Factor 11 mRNA", "low group"],
  ["416850 (antisense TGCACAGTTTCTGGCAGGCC; 5-10-5 gapmer, further chemistry not given here) [compound 416850]", "human Factor 11 mRNA", "low group"],
  ["416926 (antisense eT*eG*eG*dT*dG*d[5mC]*dA*d[5mC]*dA*dG*dT*dT*dT*d[5mC]*dT*dG*dG*e[5mC]*eA*eG) [compound 416926]", "human Factor 11 mRNA", "high group"],
  ["416825 (antisense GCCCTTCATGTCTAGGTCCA; 5-10-5 gapmer, further chemistry not given here) [compound 416825]", "human Factor 11 mRNA", "middle group"],
  ["416945 (antisense eA*eA*dT*dG*dT*d[5mC]*dT*dT*dT*dG*dT*dT*dG*d[5mC]*dA*eA*eG*e[5mC]*eG*e[5mC]) [compound 416945]", "human Factor 11 mRNA", "high group"],
  ["416858 (antisense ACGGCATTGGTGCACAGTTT; 5-10-5 gapmer, further chemistry not given here) [compound 416858]", "human Factor 11 mRNA", "low group"],
  ["416989 (antisense eG*eA*dG*dA*dT*dT*d[5mC]*dT*dT*dT*dG*dG*dG*d[5mC]*d[5mC]*eA*eT*eT*e[5mC]*e[5mC]) [compound 416989]", "human Factor 11 mRNA", "low group"],
  ["416984 (antisense e[5mC]*eA*dA*d[5mC]*d[5mC]*dG*dG*dG*dA*dT*dG*dA*dT*dG*dA*eG*eT*eG*e[5mC]*eA) [compound 416984]", "human Factor 11 mRNA", "middle group"]
]}

Qu. Pick a category. Item: 416999 (antisense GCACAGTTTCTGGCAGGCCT; 2-13-5 gapmer chemistry, further chemistry not given here) [compound 416999]
Ans. middle group

Qu. Pick a category. Item: 416878 (antisense eG*eG*eT*d[5mC]*d[5mC]*dA*d[5mC]*dA*dT*dA*dA*dA*dT*dG*dT*d[5mC]*dT*eT*eT*eG) [compound 416878]
Ans. middle group
